- MEASUREMENT_PROTOCOL: NCI Yeast Anticancer Drug Screen. Data for the bub3 strain (AID 167)
- ASSAY_CONTEXT: S. cerevisiae bub3 mutant strain, at 50.0 µM, hits give high values
This is part of a sample that, as a whole, favours compounds with a hit. Of some 79,000 tested, about 15% had one in any assay. Calls of active or inactive are those of the source. No stated cut-off is given here; in the data, active means growth inhibition above about 70%; inactive means the rest.
Item-by-item account of growth inhibition

CCOC(=O)c1cccc(C(=O)OCC)n1 : 18.7% (inactive)
O=C(OCCOCBr)c1ccccc1 : 31.1% (inactive)
O=C1c2ccccc2CN1c1ccccc1 : -7.5% (inactive)
CCCCCCCCCCC1OCC(C)(C)CO1 : 1.65% (inactive)
CCC(CC)C(=O)OCCc1ccccc1 : 9.9% (inactive)
N=C1C(O)=CC(=O)C(O)=C1C(=O)O : -13% (inactive)
CCN(CC)CC(O)c1cccc2cccnc12 (stereo unspecified) : 5.2% (inactive)
CCOCCOCCOC12C(=O)C(Cl)=C(Cl)C(=O)C13C1CC2C(Cl)C13 (stereo unspecified) : 98.7% (active)

IN: // Input: Cc1cc(Cl)ccc1NC(=O)C1C(=O)C(=O)N(c2ccc(Cl)cc2C)C1=O (stereo unspecified) . Output its growth inhibition only.
OUT: -18.2% (inactive)

IN: Consider the molecule Nc1cccc(Br)n1 . State its measured growth inhibition.
OUT: 7.1% (inactive)

----------
- MEASUREMENT_PROTOCOL: NCI Yeast Anticancer Drug Screen. Data for the cln2 rad14 strain (AID 165);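 further: 0% = growth equal to vehicle treated cultures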
- ASSAY_CONTEXT: S. cerevisiae cln2 rad14 strain, at 50.0 µM
Compounds without any hit were thinned out: in the full panel of roughly 79,000, 15% have a hit. Activity calls are given as the source filed them. Rule as the data show it: active = growth inhibition above about 70%; inactive = the rest.
Please reply with one of these outcomes: class 1 (active), class 0 (inactive)

CCC(CO)Nc1nc2c(Cl)cc(Cl)cc2c2ccccc12 (stereo not drawn) : class 0
CCSC1C(N=[N+]=[N-])C(CO)OC1n1cnc2c(N)ncnc21 (stereo not drawn) : class 0

Attention now shifts to the item below.
IN: Recorded call for O=C1CSC(c2cccc(O)c2O)N1c1nncs1 (stereo not drawn) ?
OUT: class 0

----------
- MEASUREMENT_PROTOCOL: NCI Yeast Anticancer Drug Screen. Data for the cln2 rad14 strain (AID 165);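 further: 0% = growth equal to vehicle treated cultures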
- ASSAY_CONTEXT: S. cerevisiae cln2 rad14 strain, at 50.0 µM, hits give high values
- Protocol: Growth inhibition of yeast strains with defined genetic alterations is measured as a screen for potential anti-cancer activity. Selected strains with alterations in DNA damage repair or cell cycle control were exposed to compounds and growth inhibition was measured relative to vehicle treated controls. The strain used in this assay is cln2 rad14
Compounds without any hit were thinned out: in the full panel of roughly 79,000, 15% have a hit.
Measured growth inhibition, listed per entry.
Answer with a number only, understood to be in %.

Use the examples below as a reference point.
O=C1CSC(=S)N1 : 10.8
OCCN1CCN(C2=Nc3cccnc3Nc3cscc32)CC1 : -9.75
C[N+](C)(CCNCC(N)=O)CC(N)=O : -9.95
N#Cc1c(-c2ccc([N+](=O)[O-])cc2)c(C#N)c(=O)n(NS(=O)(=O)c2ccccc2)c1-c1ccccc1 : 4.05
C[N+](C)(C)C/C=C/C[N+](C)(C)C : -22.3

IN: Specify measured growth inhibition for CC1=Nc2nc(=NCCCN(C)C)nc3cccc(n23)N1 .
OUT: 11.2

----------
Entries and their measured growth inhibition follow.
- MEASUREMENT_PROTOCOL: NCI Yeast Anticancer Drug Screen. Data for the bub3 strain (AID 167)
- ASSAY_CONTEXT: S. cerevisiae bub3 mutant strain, at 50.0 µM, hits give high values
- Method: Growth inhibition of yeast strains with defined genetic alterations is measured as a screen for potential anti-cancer activity. Selected strains with alterations in DNA damage repair or cell cycle control were exposed to compounds and growth inhibition was measured relative to vehicle treated controls. The strain used in this assay is bub3
About 79,000 compounds went through this panel and 15% of them were active in at least one assay; those are over-represented in the sample as a whole.
Use % as the unit, but write only the number.

CCOC(=O)/C(=C\c1ccccc1Cl)C(C)=O : 98.8
Cc1cc(Cl)nc(Nc2ccccc2)n1 : 9.25

IN: Answer with the recorded growth inhibition for the molecule listed here: CN(CCN(C)C(=O)CCOS(C)(=O)=O)C(=O)CCOS(C)(=O)=O
OUT: -25.6

IN: Read the entry Nc1nnc(-c2ccc(Nc3nc4ccccc4[nH]3)c([N+](=O)[O-])c2)s1 and write its reported growth inhibition.
OUT: 3.15

IN: Could you please provide reported growth inhibition for CC(=O)c1cccc(OC(=O)c2ccccc2)c1 ? Thanks!
OUT: 45.1

----------
- MEASUREMENT_PROTOCOL: NCI Yeast Anticancer Drug Screen. Data for the rad50 strain (AID 155);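 further: 0% = growth of vehicle-only cultures of the same strain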
- ASSAY_CONTEXT: S. cerevisiae rad50 strain growth inhibition; at 50.0 µM; hits give high values
This is part of a sample that, as a whole, favours compounds with a hit. Of some 79,000 tested, about 15% had one in any assay.
REPORTED_PROPERTY: growth inhibition (%)
Field: numeric (%). Do not append units.

COc1ccc(C(C)=C2C=C(C(C)(C)C)C(=O)C(C(C)(C)C)=C2)cc1 : -26.6

IN: For the compound CCCCOC1NC(=O)NC(=O)C1(F)C(=O)OCC (stereo not given) , report growth inhibition.
OUT: 4

IN: Look up growth inhibition of Cc1ccc(-c2n[nH]c(=O)n2/N=C\c2ccc([N+](=O)[O-])cc2)cc1 and report it.
OUT: 34

IN: Supply recorded growth inhibition for N#Cc1c(N)nc(Nc2cccc3ccccc23)c(C#N)c1C#N here.
OUT: 37.7

IN: State its growth inhibition for this compound: CCOC(=O)[C@H]1Nc2ccc(C)cc2C2c3ccccc3CC21 (stereo not given in full)
OUT: -1.5

IN: Read off the recorded growth inhibition for CSCNC(=S)Nc1ccc(Cl)c(Cl)c1
OUT: 59.2

IN: Name the recorded growth inhibition of the compound listed here: COc1cc(/C=N\N=C(/C)c2ccc(C)cc2C)cc(OC)c1OC
OUT: 21.4

IN: For the compound CC1(O)CC2C(CC1SC1CC3C(CC1(C)O)C3(C)C)C2(C)C (stereo not given) , give its reported growth inhibition.
OUT: -48.3

IN: Assign growth inhibition to the following record: C[C@@]1(Cc2ccccc2)C(=O)N2[C@@H](CO)C(c3ccccc3)O[C@]2(C)c2ccccc21 (stereo not given in full)
OUT: -10.8

----------
# growth inhibition annotations
- MEASUREMENT_PROTOCOL: NCI Yeast Anticancer Drug Screen. Data for the rad50 strain (AID 155);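 further: 0% = growth of vehicle-only cultures of the same strain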
- ASSAY_CONTEXT: S. cerevisiae rad50 strain growth inhibition; at 50.0 µM; hits give high values
The panel holds about 79,000 compounds, 15% with a hit somewhere; the sample as a whole holds those more often.
All answers are understood in %, so give the number only.

Previously resolved entries follow.
CN1CCCN(C(=O)N(c2ccccc2)c2ccccc2)CC1 : -19.3
O=C(c1ccc(Cl)cc1)C(c1ccccc1)N1CCCCC1 (stereo not drawn) : 2.05
O=[N+]([O-])c1cc2ccccc2nc1-c1ccccc1 : 15.6
COC(=O)[C@]1(C)CCC[C@]2(C)c3ccc(C(C)=O)cc3C(=O)C[C@@H]12 : -1.5
COc1nc(NC2OC(CO)C(O)C(O)C2O)c(C(C)=O)c(=O)n1C (stereo not drawn) : 12.2

IN: Item Cc1ccc(N=Cc2cc(Br)ccc2O)cc1Cl : provide growth inhibition
OUT: 98.6

IN: Name the recorded growth inhibition of the compound listed here: CC1OC(c2ccccc2Cl)OC1C (stereo not drawn)
OUT: 1

IN: Identify measured growth inhibition associated with C=CCNC(=O)/C=C/C(=O)O
OUT: -8.15

----------
# reported growth inhibition; entries follow
- MEASUREMENT_PROTOCOL: NCI Yeast Anticancer Drug Screen. Data for the sgs1 mgt1 strain (AID 161);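 further: 0% = growth of cultures given vehicle only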
- ASSAY_CONTEXT: S. cerevisiae sgs1 mgt1 strain, at 50.0 µM, hits give high values
This is part of a sample that, as a whole, favours compounds with a hit. Of some 79,000 tested, about 15% had one in any assay.
Give your result in % as a bare value.

CC12CCC(=O)C=C1CCC1C2C(=O)CC2(C)C1CCC2(O)C(=O)Cn1cc(F)c(=O)[nH]c1=O (configuration not stated) : 32.8
O=S(=O)(O)c1cc(N=Nc2cc(S(=O)(=O)O)c3ccccc3c2O)ccc1/C=C/c1ccc(N=Nc2cc(S(=O)(=O)O)c3ccccc3c2O)cc1S(=O)(=O)O : 17.6
CCCNC=O : -13.8
CCCC(=O)OCC(COC(=O)CCC)OC(=O)CCC : -17.4
CC(C)C1(C(C)C)OCC(CO)O1 (configuration not stated) : -7.85

IN: Answer with the recorded growth inhibition for the molecule listed here: C=C(CCCCCCCCC)CC(=O)SCCNC(=O)CCNC(=O)C(O)C(C)(C)COP(=O)(O)OP(=O)(O)OCC1OC(n2cnc3c(N)ncnc32)C(O)C1OP(=O)(O)O (configuration not stated)
OUT: 0.55

IN: Report growth inhibition, nothing else, for this molecule: Nc1ccc(C(=O)N/C(=C\c2cccc([N+](=O)[O-])c2)c2nc3ccc(Cl)cc3[nH]2)cc1
OUT: -25.3

IN: Give recorded growth inhibition. O=C(O)CNC(=O)CNC(=O)CNC(=O)CNC(=O)CNC(=O)OCc1ccccc1
OUT: 15.2

IN: Indicate the recorded growth inhibition value for this molecule: COc1ccc(C(=O)N=Nc2ccccc2)cc1
OUT: -6.85
